Target: Yap3 (UniProt P38749)
Sequence: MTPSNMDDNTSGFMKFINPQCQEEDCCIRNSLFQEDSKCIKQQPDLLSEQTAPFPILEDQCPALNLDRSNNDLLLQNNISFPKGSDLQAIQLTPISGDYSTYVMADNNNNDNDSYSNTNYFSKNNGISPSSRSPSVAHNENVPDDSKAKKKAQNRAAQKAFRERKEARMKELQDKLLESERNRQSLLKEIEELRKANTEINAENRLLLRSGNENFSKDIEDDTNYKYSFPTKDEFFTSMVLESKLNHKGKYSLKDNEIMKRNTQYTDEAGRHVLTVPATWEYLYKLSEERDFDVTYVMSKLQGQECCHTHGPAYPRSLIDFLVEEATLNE
Test: PBM E-score (8-mer binding enrichment) (E-score (-0.5 to 0.5)); higher = stronger / more preferred TF binding
Conditions: protein concentration: 100 nM; construct: GST-full length
The full ranking holds about 33,000 sequences; the median of “E-score (-0.5 to 0.5)” is about -0.0034, and the highest 2% start at about 0.25. The entries come from a sample that favours the highest values as a whole.
Measured metric: PBM E-score
Provide a numeric answer; units are not to be included.

Exam item: Need PBM E-score, item `AATATGGG`
Marked response: 0.0708

Exam item: Need PBM E-score, item `AATTAATC`
Marked response: 0.0963

Exam item: Need PBM E-score, item `CTAAAGAA`
Marked response: 0.0205

Exam item: Need PBM E-score, item `AGCGCGCA`
Marked response: 0.24

Exam item: Need PBM E-score, item `ATAAAGAA`
Marked response: 0.26

Exam item: Need PBM E-score, item `GATTAATA`
Marked response: 0.367

Exam item: Need PBM E-score, item `CTCCGTGA`
Marked response: -0.0971

Exam item: Need PBM E-score, item `AATTAATA`
Marked response: 0.353

Exam item: Need PBM E-score, item `TTAAAGAA`
Marked response: 0.19

Exam item: Need PBM E-score, item `TCCTACAA`
Marked response: 0.0495

Exam item: Need PBM E-score, item `AATTAATG`
Marked response: 0.29
